Ref: paper PMC9069370

Assay: Tryptophan fluorescent binding assay
Details: tryptophan fluorescence; 50 µM peptide, lipid titrated 0-5000 µM; phosphate buffered saline 1X, pH 7.4; values as lipid per peptide
Peptide text beside a SMILES is read from it.
property_label: Lipid Concentration-induced 50% Peptide Binding (L/P), 3POPC/1POPG Vesicle
Supply the numeric figure in L/P, leaving out any unit text.

Example compounds with recorded Lipid Concentration-induced 50% Peptide Binding (L/P), 3POPC/1POPG Vesicle:
Entry under review: CC(C)C[C@H](NC(=O)CN)C(=O)N[C@@H](CC(C)C)C(=O)N[C@@H](Cc1c[nH]cn1)C(=O)N[C@@H](CC(C)C)C(=O)N[C@@H](CC(C)C)C(=O)N[C@@H](CCC(=O)O)C(=O)N[C@@H](CC(C)C)C(=O)N[C@@H](CC(C)C)C(=O)N[C@@H](CC(C)C)C(=O)N[C@@H](Cc1c[nH]cn1)C(=O)N[C@@H](C)C(=O)N[C@@H](C)C(=O)NCC(=O)N[C@@H](Cc1c[nH]c2ccccc12)C(N)=O [HEH] (H-GLLHLLELLLHAAGW-NH2) . Reported Lipid Concentration-induced 50% Peptide Binding (L/P), 3POPC/1POPG Vesicle?
3.50

Same for CC(C)C[C@H](NC(=O)CN)C(=O)N[C@@H](CC(C)C)C(=O)N[C@@H](Cc1c[nH]cn1)C(=O)N[C@@H](CC(C)C)C(=O)N[C@@H](CC(C)C)C(=O)N[C@@H](Cc1c[nH]cn1)C(=O)N[C@@H](CC(C)C)C(=O)N[C@@H](CC(C)C)C(=O)N[C@@H](CC(C)C)C(=O)N[C@@H](Cc1c[nH]cn1)C(=O)N[C@@H](C)C(=O)N[C@@H](C)C(=O)NCC(=O)N[C@@H](Cc1c[nH]c2ccccc12)C(N)=O [HHH] (H-GLLHLLHLLLHAAGW-NH2)
0.82

Same lookup for CC(C)C[C@H](NC(=O)CN)C(=O)N[C@@H](CC(C)C)C(=O)N[C@@H](CC(=O)O)C(=O)N[C@@H](CC(C)C)C(=O)N[C@@H](CC(C)C)C(=O)N[C@@H](CCC(=O)O)C(=O)N[C@@H](CC(C)C)C(=O)N[C@@H](CC(C)C)C(=O)N[C@@H](CC(C)C)C(=O)N[C@@H](CCC(=O)O)C(=O)N[C@@H](C)C(=O)N[C@@H](C)C(=O)NCC(=O)N[C@@H](Cc1c[nH]c2ccccc12)C(N)=O [DEE] (H-GLLDLLELLLEAAGW-NH2) , please.
0.38

Proceed to CC(C)C[C@H](NC(=O)CN)C(=O)N[C@@H](CC(C)C)C(=O)N[C@@H](CCC(=O)O)C(=O)N[C@@H](CC(C)C)C(=O)N[C@@H](CC(C)C)C(=O)N[C@@H](CCC(=O)O)C(=O)N[C@@H](CC(C)C)C(=O)N[C@@H](CC(C)C)C(=O)N[C@@H](CC(C)C)C(=O)N[C@@H](CCC(=O)O)C(=O)N[C@@H](C)C(=O)N[C@@H](C)C(=O)NCC(=O)N[C@@H](Cc1c[nH]c2ccccc12)C(N)=O [EEE] (H-GLLELLELLLEAAGW-NH2)
4.50

---
What does the data say about its Lipid Concentration-induced 50% Peptide Binding (L/P), 3POPC/1POPG Vesicle? Entry: CC(C)C[C@H](NC(=O)CN)C(=O)N[C@@H](CC(C)C)C(=O)N[C@@H](CC(=O)O)C(=O)N[C@@H](CC(C)C)C(=O)N[C@@H](CC(C)C)C(=O)N[C@@H](CCC(=O)O)C(=O)N[C@@H](CC(C)C)C(=O)N[C@@H](CC(C)C)C(=O)N[C@@H](CC(C)C)C(=O)N[C@@H](Cc1c[nH]cn1)C(=O)N[C@@H](C)C(=O)N[C@@H](C)C(=O)NCC(=O)N[C@@H](Cc1c[nH]c2ccccc12)C(N)=O [DEH] (H-GLLDLLELLLHAAGW-NH2)
1.50

----------
Measured Lipid Concentration-induced 50% Peptide Binding (L/P), 3POPC/1POPG Vesicle, listed per entry.
Test: Tryptophan fluorescent binding assay
Conditions: tryptophan fluorescence; 50 µM peptide, lipid titrated 0-5000 µM; phosphate buffered saline 1X, pH 7.4; values as lipid per peptide
Peptide text beside a SMILES is read from it.
Output spec: scalar in L/P, unitless text.

As a guide, the following entries are already answered.
Recorded Lipid Concentration-induced 50% Peptide Binding (L/P), 3POPC/1POPG Vesicle of CC(C)C[C@H](NC(=O)CN)C(=O)N[C@@H](CC(C)C)C(=O)N[C@@H](CCC(=O)O)C(=O)N[C@@H](CC(C)C)C(=O)N[C@@H](CC(C)C)C(=O)N[C@@H](CCCCN)C(=O)N[C@@H](CC(C)C)C(=O)N[C@@H](CC(C)C)C(=O)N[C@@H](CC(C)C)C(=O)N[C@@H](Cc1c[nH]cn1)C(=O)N[C@@H](C)C(=O)N[C@@H](C)C(=O)NCC(=O)N[C@@H](Cc1c[nH]c2ccccc12)C(N)=O [EKH] (H-GLLELLKLLLHAAGW-NH2) , please.
0.19

Same thing, different compound: CC(C)C[C@H](NC(=O)CN)C(=O)N[C@@H](CC(C)C)C(=O)N[C@@H](Cc1c[nH]cn1)C(=O)N[C@@H](CC(C)C)C(=O)N[C@@H](CC(C)C)C(=O)N[C@@H](CCC(=O)O)C(=O)N[C@@H](CC(C)C)C(=O)N[C@@H](CC(C)C)C(=O)N[C@@H](CC(C)C)C(=O)N[C@@H](CCCCN)C(=O)N[C@@H](C)C(=O)N[C@@H](C)C(=O)NCC(=O)N[C@@H](Cc1c[nH]c2ccccc12)C(N)=O [HEK] (H-GLLHLLELLLKAAGW-NH2)
0.46

Attention now turns to another entry.
Param item = CC(C)C[C@H](NC(=O)CN)C(=O)N[C@@H](CC(C)C)C(=O)N[C@@H](Cc1c[nH]cn1)C(=O)N[C@@H](CC(C)C)C(=O)N[C@@H](CC(C)C)C(=O)N[C@@H](Cc1c[nH]cn1)C(=O)N[C@@H](CC(C)C)C(=O)N[C@@H](CC(C)C)C(=O)N[C@@H](CC(C)C)C(=O)N[C@@H](CCC(=O)O)C(=O)N[C@@H](C)C(=O)N[C@@H](C)C(=O)NCC(=O)N[C@@H](Cc1c[nH]c2ccccc12)C(N)=O [HHE] (H-GLLHLLHLLLEAAGW-NH2) ; retrieve measured Lipid Concentration-induced 50% Peptide Binding (L/P), 3POPC/1POPG Vesicle.
0.75

----------
# key: entry, value: Lipid Concentration-induced 50% Peptide Binding (L/P), POPC Vesicle
Experiment: Tryptophan fluorescent binding assay
Details: tryptophan fluorescence; 50 µM peptide, lipid titrated 0-5000 µM; phosphate buffered saline 1X, pH 7.4; values as lipid per peptide
Peptide text beside a SMILES is read from it.
Respond with the bare value in L/P.

Which Lipid Concentration-induced 50% Peptide Binding (L/P), POPC Vesicle is reported for this molecule? CC(C)C[C@H](NC(=O)CN)C(=O)N[C@@H](CC(C)C)C(=O)N[C@@H](CC(=O)O)C(=O)N[C@@H](CC(C)C)C(=O)N[C@@H](CC(C)C)C(=O)N[C@@H](CCC(=O)O)C(=O)N[C@@H](CC(C)C)C(=O)N[C@@H](CC(C)C)C(=O)N[C@@H](CC(C)C)C(=O)N[C@@H](CCCCN)C(=O)N[C@@H](C)C(=O)N[C@@H](C)C(=O)NCC(=O)N[C@@H](Cc1c[nH]c2ccccc12)C(N)=O [DEK] (H-GLLDLLELLLKAAGW-NH2)
1.50

In the following, a different molecule is considered.
Fill in the blank: the reported Lipid Concentration-induced 50% Peptide Binding (L/P), POPC Vesicle of CC(C)C[C@H](NC(=O)CN)C(=O)N[C@@H](CC(C)C)C(=O)N[C@@H](CC(=O)O)C(=O)N[C@@H](CC(C)C)C(=O)N[C@@H](CC(C)C)C(=O)N[C@@H](CCC(=O)O)C(=O)N[C@@H](CC(C)C)C(=O)N[C@@H](CC(C)C)C(=O)N[C@@H](CC(C)C)C(=O)N[C@@H](CCC(=O)O)C(=O)N[C@@H](C)C(=O)N[C@@H](C)C(=O)NCC(=O)N[C@@H](Cc1c[nH]c2ccccc12)C(N)=O [DEE] (H-GLLDLLELLLEAAGW-NH2) is ____.
0.63
